# measurement.target: Potassium voltage-gated channel subfamily KQT member 1 (Homo sapiens) (UniProt P51787)
# Sequence (P51787 whole entry, looked up): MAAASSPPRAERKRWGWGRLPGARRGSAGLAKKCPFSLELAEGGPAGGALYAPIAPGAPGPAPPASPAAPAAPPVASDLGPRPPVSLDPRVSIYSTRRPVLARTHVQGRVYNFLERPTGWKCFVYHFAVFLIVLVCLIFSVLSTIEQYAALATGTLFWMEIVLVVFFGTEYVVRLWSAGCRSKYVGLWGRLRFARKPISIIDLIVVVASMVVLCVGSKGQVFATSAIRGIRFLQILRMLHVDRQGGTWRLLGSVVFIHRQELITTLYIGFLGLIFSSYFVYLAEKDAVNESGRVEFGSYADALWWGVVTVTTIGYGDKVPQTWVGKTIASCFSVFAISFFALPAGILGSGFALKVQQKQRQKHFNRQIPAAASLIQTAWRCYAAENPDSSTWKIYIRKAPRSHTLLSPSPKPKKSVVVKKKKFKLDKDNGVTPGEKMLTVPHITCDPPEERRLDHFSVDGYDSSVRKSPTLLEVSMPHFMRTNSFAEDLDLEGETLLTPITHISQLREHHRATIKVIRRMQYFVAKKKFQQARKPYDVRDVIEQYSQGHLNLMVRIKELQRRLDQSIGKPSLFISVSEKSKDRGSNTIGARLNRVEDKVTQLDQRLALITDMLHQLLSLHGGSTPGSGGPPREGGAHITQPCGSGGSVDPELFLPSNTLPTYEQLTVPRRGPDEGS
# test.method.notes: KCNQ1 thallium flux decrease by hits – cell-based, FluxOR thallium flux, counter-screen for KCNQ2 inhibitor project (AID 493026);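 note: CHO cells stably transfected with KCNQ1 and depolarized by potassium stimulus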
# cond: KCNQ1-expressing cells, FluxOR thallium flux fluorescence, at 10 µM
The whole screen tested about 1,000 compounds, of which about 150 (15%) were called active.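 Rule for the calls: active = activity change at least 3 SD of negative controls below their mean in both duplicate wells; inactive = the rest.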 The entries come from a sample that favours actives as a whole.
Possible outcomes: class 1 for active, class 0 for inactive

molecule: CCOC(=O)C(C)Sc1nc2ccccc2c(=O)n1CC1CCCCC1 (configuration not stated)
class.name: class 1
//
molecule: COc1cccc(COc2ccc(N(C)S(=O)(=O)c3ccccc3)cc2)c1
class.name: class 0
//
molecule: CCc1ccc(-c2cc(C(=O)NCc3ccco3)c3ccccc3n2)s1
class.name: class 0
//
molecule: O=C(OCC(=O)N(CCc1ccccc1)Cc1ccccc1)c1ccccc1[N+](=O)[O-]
class.name: class 0
//
molecule: Cc1ccccc1N1CCN(CC(=O)NCc2ccc(Cl)cc2)CC1
class.name: class 0
//
molecule: CCc1ccccc1NC(=O)/C(=C/c1ccccc1)c1ccccc1
class.name: class 1
//
molecule: Cc1nc2ccccc2c(-c2ccccc2)c1C(=O)c1ccccc1
class.name: class 0

====

# measurement.target: Potassium voltage-gated channel subfamily KQT member 1 (Homo sapiens)
# test.method.notes: KCNQ1 thallium flux decrease by hits – cell-based, FluxOR thallium flux, counter-screen for KCNQ2 inhibitor project (AID 493026);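 note: CHO cells stably transfected with KCNQ1 and depolarized by potassium stimulus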
# cond: KCNQ1-expressing cells, FluxOR thallium flux fluorescence, at 10 µM
The whole screen tested about 1,000 compounds, of which about 150 (15%) were called active.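 How the source made its calls: active means activity change at least 3 SD of negative controls below their mean in both duplicate wells; inactive means the rest.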 This excerpt belongs to a sample that is enriched for actives.
Outcome codes: YES (active), NO (inactive)

compound: C=CCn1c(SCC(=O)/C(C#N)=C(\C)N)nc2sc(C)c(C)c2c1=O
class.name: NO
--
compound: CC(C)N(C(=O)CSc1nc(COc2ccccc2)nc2ccccc12)C(C)C
class.name: YES
--
compound: CC(NC(=S)NNS(=O)(=O)c1ccc(C(C)(C)C)cc1)c1ccccc1 (configuration not stated)
class.name: NO
--
compound: Cc1ccc(C2=Nc3c(ccc4ccccc34)C(c3ccncc3)=NN2)cc1
class.name: NO
--
compound: CC(C)[C@H](NC(=O)OCc1ccccc1)C(=O)OCc1ccccc1
class.name: NO
--
compound: Cc1ccccc1C(=O)Nc1ccccc1Sc1ccccc1
class.name: NO
--
compound: CN(Cc1ccccc1F)C(=O)C(Cc1ccccc1)NC(=O)c1ccccc1 (configuration not stated)
class.name: NO
